# experimental_system: T1, PF4/heparin complex (human PF4 complexed with heparin) (human, UniProt P02776 32-101)
# T1 sequence: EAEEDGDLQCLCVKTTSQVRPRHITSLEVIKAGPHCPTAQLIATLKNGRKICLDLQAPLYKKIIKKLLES
# protocol_notes: cell-based or functional assay
Recorded % inhibition of 14C-serotonin release (SRA), HIT-Positive Patient #5 serum, scFv 50 µg/mL, one value per entry.
Field format: number, assumed %, no unit text.

1. Mutant B scFv, scFv(R18K, N152K, D180N) (scFv, VL-linker-VH; histidine-tagged, from E. coli BL21; also called Mut B; not shown: histidine tag from the pADL-22c vector) scFv: DIQMIQSQKFMSTSVGDKVTVTCKASQNVGTNVAWYQQKPGQSPNALIYSASYRYSGVPDRFTGSGSGTDFTLTITNVQSEDLADYFCQQYNSYPLTFGTGTKLDLKGGGGSGGGGSGGGGSVQLQQSGAELVKPGASVKLSCKASGYTFTKYFIYWVKQRPGQGLEWIGEINPRNGDTNFNEKFESRATLTVDKSSSTAYMQLSSLTSEDSAIYYCTRSPYGNNYGFTYWGQGTLVTVSA :: 90.3
2. Wildtype scFv (KKO-derived single chain variable fragment) (scFv, VL-(G4S)3 linker-VH; expressed in E. coli BL21 from pADL-22c, purified on Ni-NTA as histidine-tagged scFv, about 28 kDa; also called WT; KKO-scFv; not shown: histidine tag from the pADL-22c vector) scFv: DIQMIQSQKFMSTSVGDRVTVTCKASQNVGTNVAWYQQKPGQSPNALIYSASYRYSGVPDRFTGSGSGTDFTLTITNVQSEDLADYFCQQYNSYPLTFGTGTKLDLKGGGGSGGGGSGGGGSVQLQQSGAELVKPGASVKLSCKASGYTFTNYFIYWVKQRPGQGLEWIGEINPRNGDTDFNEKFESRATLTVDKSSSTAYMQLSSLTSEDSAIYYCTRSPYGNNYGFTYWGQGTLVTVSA :: -6.9
3. Mutant E scFv, scFv(Y156H, D180G, Q233P) (scFv, VL-linker-VH; histidine-tagged, from E. coli BL21; also called Mut E; not shown: histidine tag from the pADL-22c vector) scFv: DIQMIQSQKFMSTSVGDRVTVTCKASQNVGTNVAWYQQKPGQSPNALIYSASYRYSGVPDRFTGSGSGTDFTLTITNVQSEDLADYFCQQYNSYPLTFGTGTKLDLKGGGGSGGGGSGGGGSVQLQQSGAELVKPGASVKLSCKASGYTFTNYFIHWVKQRPGQGLEWIGEINPKNGDTGFNEKFESRATLTVDKSSSTAYMQLSSLTSEDSAIYYCTRSPYGNNYGFTYWGPGTLVTVSA :: 47.2

In: Suppose we examine the binder Mutant F scFv, scFv(E183V, E186K, G223R) (scFv, VL-linker-VH; histidine-tagged, from E. coli BL21; also called Mut F; not shown: histidine tag from the pADL-22c vector) scFv: DIQMIQSQKFMSTSVGDRVTVTCKASQNVGTNVAWYQQKPGQSPNALIYSASYRYSGVPDRFTGSGSGTDFTLTITNVQSEDLADYFCQQYNSYPLTFGTGTKLDLKGGGGSGGGGSGGGGSVQLQQSGAELVKPGASVKLSCKASGYTFTNYFIYWVKQRPGQGLEWIGEINPRNGDTDFNVKFKSRATLTVDKSSSTAYMQLSSLTSEDSAIYYCTRSPYRNNYGFTYWGQGTLVTVSA ; what % inhibition of 14C-serotonin release (SRA), HIT-Positive Patient #5 serum, scFv 50 µg/mL value has been reported?
Out: 90.3

In: Same question for Mutant D scFv, scFv(Y156H) (scFv, VL-linker-VH; histidine-tagged, from E. coli BL21; also called Mut D; not shown: histidine tag from the pADL-22c vector) scFv: DIQMIQSQKFMSTSVGDRVTVTCKASQNVGTNVAWYQQKPGQSPNALIYSASYRYSGVPDRFTGSGSGTDFTLTITNVQSEDLADYFCQQYNSYPLTFGTGTKLDLKGGGGSGGGGSGGGGSVQLQQSGAELVKPGASVKLSCKASGYTFTNYFIHWVKQRPGQGLEWIGEINPRNGDTDFNEKFESRATLTVDKSSSTAYMQLSSLTSEDSAIYYCTRSPYGNNYGFTYWGQGTLVTVSA please.
Out: 69.4

In: Same question for Mutant C scFv, scFv(S50N, Y53H) (scFv, VL-linker-VH; histidine-tagged, from E. coli BL21; also called Mut C; not shown: histidine tag from the pADL-22c vector) scFv: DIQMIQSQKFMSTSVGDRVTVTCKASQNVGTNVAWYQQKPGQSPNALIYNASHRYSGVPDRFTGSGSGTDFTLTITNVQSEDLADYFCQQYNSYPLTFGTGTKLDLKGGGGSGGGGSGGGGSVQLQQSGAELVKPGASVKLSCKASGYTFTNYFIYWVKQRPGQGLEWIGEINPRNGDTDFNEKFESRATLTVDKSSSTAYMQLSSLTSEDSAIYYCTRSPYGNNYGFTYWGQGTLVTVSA please.
Out: 22.2
